- EXPERIMENT: protein stability index of a GFP-peptide fusion (yeast GPS) (PSI 1-4); higher = more stable; sorted into four equal gates, so the index is relative within each strain
- CONDITION_SUMMARY: ubr1∆
I would appreciate it if you labelled entries t when protein stability index is 3 or higher, otherwise f.

For this sequence, is measured protein stability index 3 or higher? SDVSDFEGWGHEYIRHL [RPN1]
t

For this sequence, is measured protein stability index 3 or higher? GGESDSALILMYKGFGL [UBP6]
t

For this sequence, is measured protein stability index 3 or higher? KFNKSKAKFTSLAVRSL [YCS4]
f

For this sequence, is measured protein stability index 3 or higher? EDFQKRQQKLLEDQQRQ [SWI1]
t

For this sequence, is measured protein stability index 3 or higher? LESDFVTGASQFQRLAP [PRE2]
f

For this sequence, is measured protein stability index 3 or higher? SDIVLDKKVTLITSEMF [SIN4]
f

For this sequence, is measured protein stability index 3 or higher? PVGACATSVESVDIGVE [FAS2]
f

For this sequence, is measured protein stability index 3 or higher? NLNVYIQVFEKPFLKKT [CDC53]
f

For this sequence, is measured protein stability index 3 or higher? IKKMLHLVWMKGTNDEG [YCS4]
t

For this sequence, is measured protein stability index 3 or higher? KKRKIHNGREGSIEEPE [MCD1]
t

For this sequence, is measured protein stability index 3 or higher? HASKAIGLPRHSLAYLL [RRP6]
f

For this sequence, is measured protein stability index 3 or higher? ILTGTPLQNNLPELWAL [SNF2]
f

For this sequence, is measured protein stability index 3 or higher? KDLKFPLPHRVQKSTKT [RPL20A]
f

For this sequence, is measured protein stability index 3 or higher? LHGLTPTAKDVEVIKQL [GAL11]
f

For this sequence, is measured protein stability index 3 or higher? DNEVQRTMLELITQLDG [RPT1]
f

For this sequence, is measured protein stability index 3 or higher? GLDQSRIPFSERKLKFS [FAS1]
f

For this sequence, is measured protein stability index 3 or higher? RMPIMLRSNKCILYDAD [RET1]
f

For this sequence, is measured protein stability index 3 or higher? TCSYVEEAGSPLVYRHE [RPB9]
f

For this sequence, is measured protein stability index 3 or higher? CGAGVFLANHKDRLYCG [RPS31]
f

For this sequence, is measured protein stability index 3 or higher? ITVVPVVAAAEDDDNEQ [QCR6]
f

For this sequence, is measured protein stability index 3 or higher? RMRVSVLEKYEVIGYIA [SSN3]
f

For this sequence, is measured protein stability index 3 or higher? HKSIELISNLLFSKNRN [YCS4]
f

For this sequence, is measured protein stability index 3 or higher? PGHSLLLSIKLPGKVNT [SNF5]
f

For this sequence, is measured protein stability index 3 or higher? LPNEAGRLEIFKIHTAK [RPT4]
f

For this sequence, is measured protein stability index 3 or higher? LLREKQRVRNMRELGLI [YOR098C/NUP1]
f

For this sequence, is measured protein stability index 3 or higher? SRRTVNKEMETQRIMTN [YLR018C/POM34]
t

For this sequence, is measured protein stability index 3 or higher? SQTPSFNTNSSFTPSTV [YOR098C/NUP1]
f

For this sequence, is measured protein stability index 3 or higher? FVSYFGKQIKSTIYNWG [YML103C/NUP188]
f

For this sequence, is measured protein stability index 3 or higher? AQDVALAKKWFLQHPDE [PRP8]
f

Numbers sourced from the supplement of paper PMC9732359.
